Test system: P. falciparum stage V gametocytes
Design: BacTiter-Glo ATP luminescence viability of purified stage V gametocytes in 384-well plates, per cent inhibition versus DMSO
Conditions: 48 h, 5 µM; inhibitor
Hit rate of the full screen: of about 13,000 compounds, about 3,200 (25%) showed an effect of 50% or more. This is one part of the list.
experimental readout: % Inhibition (%)
Could you give me the number in %? Just the number is fine.

Q: Reported % Inhibition for COc1ccccc1C1CCN(Cc2csc(NC(=O)c3ccc(-c4ccc(C(F)(F)F)cc4)cc3)n2)CC1 : what is it?
A: -44.16

Q: Reported % Inhibition for CC(CCON1C(N)=NC(N)=NC1(C)C)c1ccc(Cl)c(Cl)c1 (centres unmarked) : what is it?
A: 56.56

Q: Reported % Inhibition for CC1(C)N=C(N)N=C(N)N1OCc1cc(Cl)c(CON2C(N)=NC(N)=NC2(C)C)cc1Cl : what is it?
A: 88.84

Q: Reported % Inhibition for O=C(CCCCCc1ccccc1)NC1CCC(CN2CCC(c3c[nH]c4ccccc34)CC2)CC1 (centres unmarked) : what is it?
A: 95.36

Q: Reported % Inhibition for O=C(Cc1cc(=O)oc2cc(O)ccc12)NC1CCC(CN2CCC(c3c[nH]c4ccccc34)CC2)CC1 (centres unmarked) : what is it?
A: -52.99

Q: Reported % Inhibition for COc1cc(F)c2ncc(Cl)c(CCN3CCC(NCc4ccc5c(c4)OCCO5)CC3)c2c1 : what is it?
A: 2.949

Q: Reported % Inhibition for CC1(C)N=C(N)N=C(N)N1OCc1cc(Cl)c(Cl)cc1CON1C(N)=NC(N)=NC1(C)C : what is it?
A: -27.6

Q: Reported % Inhibition for Cc1cnc(-c2ccc(NC(=O)N3CCc4cc5nccc(N6CCN7CCC[C@H]7C6)c5cc43)c3ccccc23)o1 : what is it?
A: -7.754

###

Test system: P. falciparum stage V gametocytes
Set-up: BacTiter-Glo ATP luminescence viability of purified stage V gametocytes in 384-well plates, per cent inhibition versus DMSO
Conditions: 48 h, 5 µM; inhibitor
Among all 13,000 compounds or so, about 3,200 (25%) showed an effect of 50% or more. The list shows a part of the results.
For each of the molecules below, state its % Inhibition.
Could you give me the number in %? Just the number is fine.

Q: Request - read-out % Inhibition | tested on P. falciparum stage V gametocytes | molecule CNC(=O)c1cnc(Nc2ccc(N3CCOCC3)cc2)nc1Nc1cccc(O)c1 [TCMDC-141385]
A: -8.649

Q: Request - read-out % Inhibition | tested on P. falciparum stage V gametocytes | molecule CNC(=O)c1cnc(Nc2ccc(N3CCOCC3)cc2)nc1Nc1cccc(OC)c1 [TCMDC-141386]
A: -63.88

Q: Request - read-out % Inhibition | tested on P. falciparum stage V gametocytes | molecule Cc1ccc(C(=O)Nc2ccc(Nc3ccnc4cc(-c5nccs5)ccc34)cc2O)cc1 [TCMDC-138298]
A: 75.39

Q: Request - read-out % Inhibition | tested on P. falciparum stage V gametocytes | molecule COc1cc2c(cc1C(F)(F)F)N(C(=O)Nc1cc(OC(F)(F)F)cc(-c3cccnc3)c1)CC2 [TCMDC-139046]
A: -1.066

Q: Request - read-out % Inhibition | tested on P. falciparum stage V gametocytes | molecule Cc1cc(OCCCN=C(N)c2ccc3ccccc3c2)c(C(C)C)cc1Cl [TCMDC-137527]
A: 57.09

Q: Request - read-out % Inhibition | tested on P. falciparum stage V gametocytes | molecule CN1CCCc2ccc(NC(=O)Nc3ccc(Cl)c(Cl)c3)cc2C1 [TCMDC-133732]
A: -5.496

Q: Request - read-out % Inhibition | tested on P. falciparum stage V gametocytes | molecule O=C(CCOc1ccccc1)NCC1CCCO1 (centres unmarked) [TCMDC-123513]
A: 13.36

Q: Request - read-out % Inhibition | tested on P. falciparum stage V gametocytes | molecule NC(=NCCc1ccc(Cl)c(Cl)c1)c1ccc2ccccc2c1 [TCMDC-137525]
A: 0.5254

Q: Request - read-out % Inhibition | tested on P. falciparum stage V gametocytes | molecule COc1ccc(CNCCc2cccs2)cc1-c1cccc(S(=O)(=O)NCCN2CCCC2)c1 [TCMDC-132479]
A: 91.1

Q: Request - read-out % Inhibition | tested on P. falciparum stage V gametocytes | molecule CCCCCCC(C)c1cc(O)c2c(c1)OC(=O)CC2(CC)c1ccccn1 (centres unmarked) [TCMDC-131681]
A: -3.085

Q: Request - read-out % Inhibition | tested on P. falciparum stage V gametocytes | molecule Cc1ccc(C(=O)Nc2ccc(Nc3ccnc4cc(-c5ccccn5)ccc34)cc2O)cc1 [TCMDC-138205]
A: 115.7

Q: Request - read-out % Inhibition | tested on P. falciparum stage V gametocytes | molecule C[C@H](Cc1ccc(C[C@@H](C)NCC(O)c2cc(Cl)c(N)c(Cl)c2)cc1)NCC(O)c1cc(Cl)c(N)c(Cl)c1 (some centres unmarked) [TCMDC-131548]
A: 39.43

Q: Request - read-out % Inhibition | tested on P. falciparum stage V gametocytes | molecule Cc1ccc(Nc2nc(C)cc(NC3CCCC3)n2)cc1 [TCMDC-133470]
A: 43.93

Q: Request - read-out % Inhibition | tested on P. falciparum stage V gametocytes | molecule COc1ccc(CNCCc2cccs2)cc1-c1ccc(S(=O)(=O)NCCN2CCCC2)cc1 [TCMDC-132475]
A: 76.8

Q: Request - read-out % Inhibition | tested on P. falciparum stage V gametocytes | molecule COc1ccc([N+](=O)[O-])cc1N(Cc1ccccc1-c1ccccc1)S(=O)(=O)c1ccc(C(F)(F)F)cc1[N+](=O)[O-] [TCMDC-141596]
A: 92.47

Q: Request - read-out % Inhibition | tested on P. falciparum stage V gametocytes | molecule Cc1cc(C)cc(OCC(O)CN(Cc2cc(Cl)cc(Cl)c2)C(=O)Nc2ccc([N+](=O)[O-])cc2)c1 (centres unmarked) [TCMDC-141478]
A: -6.134

Q: Request - read-out % Inhibition | tested on P. falciparum stage V gametocytes | molecule COc1ccc2ncc(Cl)c(NCC3(O)CCC(NCc4ccc5c(n4)NC(=O)CS5)CC3)c2n1 (centres unmarked) [TCMDC-134671]
A: 11.29

Q: Request - read-out % Inhibition | tested on P. falciparum stage V gametocytes | molecule O=C(Nc1cccc(-c2nn3ccccc3c2-c2ccnc(Nc3ccc(C(=O)N4CCOCC4)cc3)n2)c1)c1c(F)cccc1F [TCMDC-135910]
A: -23.59

Q: Request - read-out % Inhibition | tested on P. falciparum stage V gametocytes | molecule c1ccc(-c2ccc3c(Nc4ccc5[nH]ncc5c4)ccnc3c2)nc1 [TCMDC-138199]
A: 108.3

Q: Request - read-out % Inhibition | tested on P. falciparum stage V gametocytes | molecule COc1nc2c(CCN3CCC(NCc4ccc5c(c4)NC(=O)CO5)CC3)c(Cl)cnc2cc1F [TCMDC-135767]
A: 23.61

Q: Request - read-out % Inhibition | tested on P. falciparum stage V gametocytes | molecule c1ccc(-c2ccc3c(Nc4ccc5[nH]ccc5c4)ccnc3c2)nc1 [TCMDC-138200]
A: 22.33

Q: Request - read-out % Inhibition | tested on P. falciparum stage V gametocytes | molecule CNC(=O)c1cnc(Nc2ccc(N3CCN(C)CC3)cc2)nc1Nc1cccc(OC(C)C)c1 [TCMDC-141384]
A: -23.05

Q: Request - read-out % Inhibition | tested on P. falciparum stage V gametocytes | molecule COc1cc2nccc(Nc3ccc(NC(=O)c4ccc(C)cc4)c(O)c3)c2cc1OC.Cl [TCMDC-138197]
A: 20.08

Q: Request - read-out % Inhibition | tested on P. falciparum stage V gametocytes | molecule CC(=O)Nc1cccc(C(=O)Nc2cccc(-c3ccc(-c4nc5cc(C(F)(F)F)ccc5[nH]4)s3)c2)c1 [TCMDC-132138]
A: 13.04

Q: Request - read-out % Inhibition | tested on P. falciparum stage V gametocytes | molecule COc1ccc([N+](=O)[O-])cc1N(Cc1ccccc1-c1ccccc1)S(=O)(=O)c1ccc(C(F)(F)F)cc1 [TCMDC-141595]
A: -1.284

Q: Request - read-out % Inhibition | tested on P. falciparum stage V gametocytes | molecule COc1cc(F)c2ncc(Cl)c(CCN3CCC(NCc4ccc5c(c4)NC(=O)CO5)CC3)c2c1 [TCMDC-135623]
A: 24.82

Q: Request - read-out % Inhibition | tested on P. falciparum stage V gametocytes | molecule CN(C)CCOc1cc(NC(=O)Nc2cccc([N+](=O)[O-])c2)ccc1I [TCMDC-139158]
A: 11.15

Q: Request - read-out % Inhibition | tested on P. falciparum stage V gametocytes | molecule CC(=O)Nc1ccc(COc2ccc(Nc3ccnc4cc(-c5ccccn5)ccc34)cc2)cc1 [TCMDC-138206]
A: 116.6

Q: Request - read-out % Inhibition | tested on P. falciparum stage V gametocytes | molecule CC(=O)N(C)c1cccc(C(=O)Nc2cccc(-c3cccc(-c4nc5c(C)cccc5[nH]4)c3)c2)c1 [TCMDC-137071]
A: 44.44

Q: Request - read-out % Inhibition | tested on P. falciparum stage V gametocytes | molecule COc1ccc(-c2cn3c(C(=O)Nc4ccccc4Cl)c(-c4ccccc4)c4c3n2CCCC4)cc1 [TCMDC-125125]
A: -39.86

Q: Request - read-out % Inhibition | tested on P. falciparum stage V gametocytes | molecule Cc1cc(-c2ccc(CNCCc3cccs3)cc2)ccc1S(=O)(=O)NCc1ccccc1 [TCMDC-132473]
A: 18.33

Q: Request - read-out % Inhibition | tested on P. falciparum stage V gametocytes | molecule Oc1ccccc1CNCC(O)c1cccc(C(F)(F)F)c1 (centres unmarked) [TCMDC-140303]
A: 18.18

Value source: paper PMC4552634
